Data credit: patent US12077503B2

- Tested on: barnyardgrass (Echinochloa crus-galli)
- method-notes: Test B flooded paddy test
- Format: in vivo
- experimental-parameters: Echinochloa crus-galli, 360 h, Flood, 250 g ai/ha; visually evaluated after 13 to 15 d; read-out: Plant response rating, Barnyardgrass (0 to 100 scale where 0 is no effect and 100 is complete control)
metric-name: pest or weed control at 250 g/ha (%)

CN1C[C@H](c2ccc(Br)cc2)[C@@H](C(=O)Nc2ccc(F)c(F)c2F)C1=O | 85
COc1cc(OC)cc([C@H]2CN(C)C(=O)[C@@H]2C(=O)Nc2cccc(F)c2F)c1 | 60
COc1c([C@H]2CN(C)C(=O)[C@@H]2C(=O)Nc2cccc(F)c2F)cccc1C(F)(F)F | 95
Cc1c(F)ccc([C@H]2CNC(=O)[C@@H]2C(=O)Nc2ccc(F)cc2F)c1F | 0
CN1C[C@H](c2ccc3c(c2)OC(F)(F)O3)[C@@H](C(=O)Nc2cnccc2C(F)(F)F)C1=O | 0
Cc1cccc([C@H]2CN(C)C(=O)[C@@H]2C(=O)Nc2cnccc2C)c1 | 0

###

- System: Galium (catchweed bedstraw, Galium aparine)
- method-notes: Test A postemergence
- Assay type: in vivo
- experimental-parameters: Galium, post-emergence, 240 h, 125 g ai/ha, postemergence, visual injury vs untreated controls after approx. 10 d; 0 = no effect, 100 = complete control; read-out: Galium plant response rating (0 to 100 scale)
Overview of recorded pest or weed control at 125 g/ha for various compounds
metric-name: pest or weed control at 125 g/ha (%)

CSc1ccccc1NC(=O)[C@H]1C(=O)NC[C@@H]1c1ccc(F)c(C#N)c1 | 30
CN1C[C@H](c2ccc(Cl)c(F)c2)[C@@H](C(=O)Nc2cccc(F)c2F)C1=O | 60
COc1cc([C@H]2CN(C)C(=O)[C@@H]2C(=O)Nc2ccccc2F)cc(OC)c1OC | 0
Cc1c(F)cccc1NC(=O)[C@H]1C(=O)N(C)C[C@@H]1c1ccc(F)c(Br)c1 | 50
CSc1ccccc1NC(=O)[C@H]1C(=O)N(C)C[C@@H]1c1ccc(C(F)(F)F)nc1 | 40
COc1ccc(C(F)(F)F)cc1[C@H]1CN(C)C(=O)[C@@H]1C(=O)Nc1ccccc1SC | 0
COc1ccc([C@H]2CN(C)C(=O)[C@@H]2C(=O)Nc2ccccc2F)c(OC)c1 | 0
O=C1NCC[C@H](c2cccc(Cl)c2)[C@H]1C(=O)Nc1ccccc1F | 20
N#Cc1ccc([C@H]2CNC(=O)[C@@H]2C(=O)Nc2ccccc2F)cc1F | 0
O=C1NC[C@H](c2ccc(C(F)(F)F)cc2)C1C(=O)Nc1ccccc1CO (stereo partly shown) | 0

###

Overview of recorded Plant response rating, Ryegrass, Italian for various molecules
- Test system: ryegrass, Italian (Italian ryegrass, Lolium multiflorum)
- method-notes: Test A postemergence
- Format: in vivo
- experimental-parameters: Postemergence, 500 g ai/ha; 0 to 100 scale where 0 is no effect and 100 is complete control
- Excerpt: […]
metric-name: Plant response rating, Ryegrass, Italian

CC(C)=CCN1CC(c2cccc(C(F)(F)F)c2)C(C(=O)Nc2cccc(F)c2F)C1=O (centres unmarked) | 0
CN1CC(c2cccc(C(F)(F)F)c2)C(C(=O)Nc2cccc(Cl)c2F)C1=O (centres unmarked) | 70
CN1CC(c2ccc(C(F)(F)F)cc2)C(C(=O)Nc2ccc(F)cc2F)C1=O (centres unmarked) | 30
Cc1ccc(C2CNC(=O)C2C(=O)Nc2ccccc2F)c(F)c1 (racemic) | 0
O=C1NCC(c2cc(C(F)(F)F)ccc2F)C1C(=O)Nc1cccc(F)c1F (centres unmarked) | 30
CN1CC(c2ccc(F)c(C(F)(F)F)c2)C(C(=O)Nc2cccc(F)c2F)C1=O (centres unmarked) | 60
O=C1NCC(c2cc(C(F)(F)F)ccc2F)C1C(=O)Nc1ccc(F)cc1F (centres unmarked) | 40
CC(C)Oc1cccc(C2CNC(=O)C2C(=O)Nc2ccccc2F)c1 (centres unmarked) | 50
